Entry source: patent US6833372B2

Assay: Pharmacokinetics in rats (jugular vein cannula, plasma LC-MS)
Type: in vivo, Rat
Conditions: female, rat, plasma, po, 10 mg/kg, female rat; 10 mg/kg as 5 mg/ml solution in 10% DMSO 20% Labrasol, 70% saline (footnote 4); read-out: FR Tmax hr
Property: Tmax (h)
The reply should contain only the number, in h.

Find the recorded Tmax belonging to COc1nc(OC)c(NC(=O)c2ccc(Cc3cc4c(cc3C)C(C)(C)OC4(C)C)o2)c(OC)n1 and report it.
1

----------
Recorded Male Rat (MR) % rem. 30′, one value per entry.
Assay: In vitro metabolism: disappearance of parent compound in rat liver microsomes (male, female)
Format: in vitro ADME
Conditions: male rat liver microsomes, 5 uM compound, 30 minutes 37° C.
The reply should contain only the number, in %.

>>> measured_result("COc1nc(NCCN2CCNCC2)nc(OC)c1NC(=O)c1ccc(Cc2cc3c(cc2C)C(C)(C)OC3(C)C)o1 [Example D14]")
78

Find the recorded Male Rat (MR) % rem. 30′ belonging to COc1nc(NCCN2CCCCC2)nc(OC)c1NC(=O)c1ccc(Cc2cc3c(cc2C)C(C)(C)OC3(C)C)o1 [Example D6] and report it.
74

Find the recorded Male Rat (MR) % rem. 30′ belonging to COc1nc(NCCC#N)nc(OC)c1NC(=O)c1ccc(Cc2cc3c(cc2C)CCCC3(C)C)o1 [Example F2] and report it.
74

Find the recorded Male Rat (MR) % rem. 30′ belonging to COc1nc(NCCCN2CCCCC2)nc(OC)c1NC(=O)c1ccc(Cc2cc3c(cc2C)C(C)(C)OC3(C)C)o1 [Example D22] and report it.
69
